test: Clinical benefit (RECIST 1.1) versus AUC/Cmax, Compound A in combination with pembrolizumab
Format: in vivo, human
conditions used: human, in vivo, intravenous; combination with anti-PD-1 mAb (pembrolizumab)
measure: Cmax

Inquiry: Name the recorded Cmax for CCOCc1nc2c(N)nc3ccccc3c2n1CC(C)(C)O [Compound A] .
Reply text: ≥ 7.65 ng/mL

---

test: Clinical benefit (RECIST 1.1) versus AUC/Cmax, Compound A in combination with atezolizumab
Format: in vivo, human
conditions used: human, plasma, intravenous; combination with anti-PD-L1 mAb (atezolizumab)
measure: Cmax

Inquiry: Please look up its Cmax: CCOCc1nc2c(N)nc3ccccc3c2n1CC(C)(C)O
Reply text: ≥ 10.5 ng/mL

Reference source for all entries: patent US20230346775A1
